# Test Protocol: Cytotoxicity against human telomerase reverse transcriptase expressing human RPE1 cells
# Assay type: functional, TERT-RPE1
# Condition Notes: Homo sapiens, RPE-1; read-out: ED50 (the source's name)
Quantity Measured: pEC50
Just so you know, pEC50 here is -log10 of the concentration in molar units; reply with that number alone.

Would you please look over these solved cases?
COc1ccc([C@@]23Oc4cc(OC)cc(OC)c4[C@]2(O)[C@H](OC(C)=O)C[C@H]3c2ccccc2)cc1 :: 6.68
COC(=O)[C@H]1[C@@H](O)[C@@]2(O)c3c(OC)cc(OC)cc3O[C@@]2(c2ccc(OC)cc2)[C@@H]1c1ccccc1 [AGLAFOLIN] :: 6.74
CC(=O)O[C@H]1C(=O)[C@@]2(C)[C@H]([C@H](OC(=O)c3ccccc3)[C@]3(O)C[C@H](OC(=O)[C@H](O)[C@@H](NC(=O)c4ccccc4)c4ccccc4)C(C)=C1C3(C)C)[C@]1(OC(C)=O)CO[C@@H]1C[C@@H]2O [PACLITAXEL] :: 7.64
CC[C@@]1(O)C(=O)OCc2c1cc1n(c2=O)Cc2cc3ccccc3nc2-1 [CAMPTOTHECIN] :: 6.64

The compound COc1ccc([C@@]23Oc4cc(OC)cc(OC)c4[C@]2(O)[C@H](O)[C@H](C(=O)O)[C@H]3c2ccccc2)cc1 [ROCAGLOIC ACID] showed pEC50 equal to 6.68

====

# System: Col2
# Test Protocol: Cytotoxicity against human Col2 cells
# Type: functional, cell-based
# Condition Notes: read-out: EC50
pEC50: −log10 of the molar value.
Quantity Measured: pEC50

O=C1C[C@@H](c2ccc(O)c(O)c2)Oc2cc(O)cc(O)c21 [ERIODICTYOL] :: < 6.00
C=C(C)[C@@H]1CC[C@]2(C)[C@H](CC[C@@H]3[C@@H]([C@@](C)(O)C/C=C/C(C)(C)O)CC[C@]32C)[C@@]1(C)CCC(=O)OC :: < 6.00

Next compound, pEC50 to be filled in.
The compound CC(C)(O)[C@@H]1CC[C@@](C)([C@H]2CC[C@]3(C)[C@@H]2CC[C@@H]2[C@@]4(C)CCC(=O)C(C)(C)[C@@H]4CC[C@]23C)O1 [CABRALEONE] showed pEC50 equal to < 6.00

====

# Test Protocol: Cytotoxicity against HUVEC
# Assay type: cell-based
# Condition Notes: human, HUVEC cells; read-out: ED50 (the source's name)
Quantity Measured: CC50

CC[C@@]1(O)C(=O)OCc2c1cc1n(c2=O)Cc2cc3ccccc3nc2-1 [CAMPTOTHECIN] :: 258 nM

The compound CC(=O)O[C@H]1C(=O)[C@@]2(C)[C@H]([C@H](OC(=O)c3ccccc3)[C@]3(O)C[C@H](OC(=O)[C@H](O)[C@@H](NC(=O)c4ccccc4)c4ccccc4)C(C)=C1C3(C)C)[C@]1(OC(C)=O)CO[C@@H]1C[C@@H]2O [PACLITAXEL] showed CC50 equal to 105 nM

The compound O=C1C[C@@H](c2ccc(O)cc2)Oc2cc(O)cc(O)c21 [NARINGENIN] showed CC50 equal to > 1000 nM

The compound C=C(C)[C@@H]1CC[C@]2(C)[C@H](CC[C@@H]3[C@@H]([C@@](C)(O)C/C=C/C(C)(C)O)CC[C@]32C)[C@@]1(C)CCC(=O)O showed CC50 equal to > 1000 nM

The compound CC(C)(O)[C@@H]1CC[C@@](C)([C@H]2CC[C@]3(C)[C@@H]2CC[C@@H]2[C@@]4(C)CCC(=O)C(C)(C)[C@@H]4CC[C@]23C)O1 [CABRALEONE] showed CC50 equal to > 1000 nM

The compound COc1ccc([C@@]23Oc4cc(OC)cc(OC)c4[C@]2(O)[C@H](OC(C)=O)C[C@H]3c2ccccc2)cc1 showed CC50 equal to 231 nM

// provenance: ChEMBL document CHEMBL1146492
